meta.source: ChEMBL document CHEMBL1152488

molecular target: Nitric oxide synthase 3 (Homo sapiens); assay: Inhibition of human eNOS assessed as residual activity at 100 uM by Griess assay relative to control
test-readout: Activity
Returns: string containing the numeric result and its unit.

{"compound": "Cc1cc(C)nc(N)c1", "Activity": "12%"}
{"compound": "CC1=CC2=NCC(C(=O)c3ccc(-c4ccc(O)cc4)cc3)CN2C=C1 (stereo unspecified)", "Activity": "86%"}
{"compound": "CC1=CC2=NCC(C(=O)c3ccc(Br)cc3)CN2C=C1 (stereo unspecified)", "Activity": "73%"}
{"compound": "Cc1cccc(N)n1", "Activity": "83%"}
{"compound": "CC1=CC2=NCC(C(=O)c3ccc4cc(C)ccc4c3)CN2C(C)=C1.[O-][Cl+3]([O-])([O-])O (stereo unspecified)", "Activity": "86%"}

# ---- query compound ----
Give recorded Activity with Nitric oxide synthase 3 (Homo sapiens) for the following compound: O=C(c1ccc2ccccc2c1)C1CN=C2C=CC=CN2C1 (stereo unspecified) 60%
